- System tested: Metabotropic glutamate receptor 1 (Rattus norvegicus)
- Sequence (P23385 whole entry): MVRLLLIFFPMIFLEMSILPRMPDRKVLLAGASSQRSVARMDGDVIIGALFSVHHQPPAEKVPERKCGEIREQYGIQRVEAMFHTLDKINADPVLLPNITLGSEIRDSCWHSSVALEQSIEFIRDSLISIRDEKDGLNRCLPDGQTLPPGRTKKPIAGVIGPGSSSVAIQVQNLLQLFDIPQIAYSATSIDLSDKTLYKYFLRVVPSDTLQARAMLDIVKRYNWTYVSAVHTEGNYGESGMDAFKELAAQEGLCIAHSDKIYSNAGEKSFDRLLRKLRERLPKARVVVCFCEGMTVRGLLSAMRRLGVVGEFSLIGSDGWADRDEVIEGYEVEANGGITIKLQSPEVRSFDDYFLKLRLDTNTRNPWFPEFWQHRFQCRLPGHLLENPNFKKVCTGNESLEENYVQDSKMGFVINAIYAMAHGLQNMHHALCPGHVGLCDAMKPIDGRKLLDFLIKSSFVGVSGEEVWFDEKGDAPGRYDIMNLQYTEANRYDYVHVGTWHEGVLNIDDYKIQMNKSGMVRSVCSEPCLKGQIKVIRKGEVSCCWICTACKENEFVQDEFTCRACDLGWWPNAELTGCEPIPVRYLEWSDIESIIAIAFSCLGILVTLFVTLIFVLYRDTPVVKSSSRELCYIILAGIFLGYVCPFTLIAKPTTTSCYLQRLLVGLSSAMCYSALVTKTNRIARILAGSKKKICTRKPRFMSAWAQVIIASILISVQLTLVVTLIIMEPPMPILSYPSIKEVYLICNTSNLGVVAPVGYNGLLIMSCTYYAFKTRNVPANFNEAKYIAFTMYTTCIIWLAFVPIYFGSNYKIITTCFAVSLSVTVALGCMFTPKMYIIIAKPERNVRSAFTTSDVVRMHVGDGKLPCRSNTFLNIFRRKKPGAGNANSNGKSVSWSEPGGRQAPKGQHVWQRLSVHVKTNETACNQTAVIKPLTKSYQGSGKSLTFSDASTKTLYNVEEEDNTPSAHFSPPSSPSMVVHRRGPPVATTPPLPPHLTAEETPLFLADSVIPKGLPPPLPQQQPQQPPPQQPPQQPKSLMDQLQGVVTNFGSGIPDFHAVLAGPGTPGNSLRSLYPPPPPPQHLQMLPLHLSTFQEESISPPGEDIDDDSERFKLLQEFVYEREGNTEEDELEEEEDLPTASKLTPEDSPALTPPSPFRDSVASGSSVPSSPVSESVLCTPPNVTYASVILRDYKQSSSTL
- Test description: Inhibition of rat mGluR1
- Experimental context: read-out: IC50
pIC50: −log10 of the molar value.
Use yes when the recorded pIC50 is no lower than 7; use no when it is lower.

- CN(C)c1ccnc2sc3c(=O)n(N4CCCCCC4)cnc3c12: yes
- Cc1ccc(-n2cnc3c(sc4nccc(N(C)C)c43)c2=O)c(C)c1: yes
- CN(C)c1ccnc2sc3c(=O)n(Cc4ccccc4)cnc3c12: no
- CCc1cccc(-n2cnc3c(sc4nccc(N(C)C)c43)c2=O)c1: yes
- CN(C)c1ccnc2sc3c(=O)n(C4CCC4)cnc3c12: no
- CC(C)c1ccc(-n2cnc3c(sc4nccc(N(C)C)c43)c2=O)cc1: no
- CCc1ccc(-n2c(C)nc3c(sc4nccc(N(C)C)c43)c2=O)cc1: yes
- CCCc1ccc(-n2cnc3c(sc4nccc(N(C)C)c43)c2=O)cc1: no
